The reported measurements were obtained from patent US5773438A.

# Subject of test: human skin fibroblast collagenase (Homo sapiens)
# Construct: endogenous in cells
# Sequence (P03956 100-469): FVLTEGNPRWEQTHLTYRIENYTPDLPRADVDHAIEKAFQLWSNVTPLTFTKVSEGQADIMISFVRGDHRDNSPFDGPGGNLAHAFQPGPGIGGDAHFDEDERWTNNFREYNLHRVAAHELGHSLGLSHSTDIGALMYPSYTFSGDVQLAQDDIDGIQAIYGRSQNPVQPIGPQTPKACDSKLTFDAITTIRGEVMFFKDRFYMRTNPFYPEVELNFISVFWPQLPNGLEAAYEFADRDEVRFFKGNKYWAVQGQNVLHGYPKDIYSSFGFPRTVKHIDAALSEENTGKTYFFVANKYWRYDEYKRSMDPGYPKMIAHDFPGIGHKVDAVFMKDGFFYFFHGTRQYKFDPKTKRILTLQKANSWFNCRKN
# Experiment notes: inhibition of collagenase, synthetic thiol ester substrate, Ki (Table 1)
With a cut-off of 30 nM, any Ki strictly below it is called YES; any Ki meeting it or above is called NO.

# count of solved cases: 5
{"Compound": "CNC(=O)[C@H](Cc1c[nH]c2ccccc12)NC(=O)C1CCCCC1C(=O)NO (mixture of isomers) [29A,B]", "Label value": "NO"}
{"Compound": "CNC(=O)[C@H](Cc1c[nH]c2ccccc12)N(C)C(=O)C(CC(=O)NO)CC(C)C (single isomer, unassigned)", "Label value": "NO"}
{"Compound": "CC(C)CC(CC(=O)NO)C(=O)N[C@@H](Cc1c[nH]c2ccccc12)C(=O)NCCO (single isomer, unassigned) [Compound 13A]", "Label value": "YES"}
{"Compound": "CC(C)CC(CC(=O)O)C(=O)N[C@@H](Cc1c[nH]c2ccccc12)C(=O)NCC(=O)O (single isomer, unassigned) [Compound 34A]", "Label value": "NO"}
{"Compound": "CC(C)CC(CC(=O)NO)C(=O)N[C@@H](Cc1c[nH]c2ccccc12)C(=O)O (stereo partly shown) [Compound 31A]", "Label value": "NO"}

Lookup: Hello, is Ki of the following compound strictly smaller than 30 nM? CC(C)CC(CC(=O)NO)C(=O)N[C@@H](Cc1c[nH]c2ccccc12)C(=O)NC1CCCCC1 (stereo partly shown) [Compound 28A]
Found: NO

Lookup: Hello, is Ki of the following compound strictly smaller than 30 nM? CNC(=O)[C@H](Cc1ccc2ccccc2c1)NC(=O)C(CC(=O)NO)CC(C)C (single isomer, unassigned) [Compound 11A]
Found: YES

Lookup: Hello, is Ki of the following compound strictly smaller than 30 nM? CNC(=O)[C@H](Cc1c[nH]c2ccccc12)NC(=O)[C@@H]1CCCC[C@@H]1C(=O)O (mixture of isomers)
Found: NO

Lookup: Hello, is Ki of the following compound strictly smaller than 30 nM? CC(C)CC(CC(=O)O)C(=O)N[C@@H](Cc1c[nH]c2ccccc12)C(=O)NCC(=O)O (single isomer, unassigned) [Compound 34B]
Found: NO

Lookup: Hello, is Ki of the following compound strictly smaller than 30 nM? CC(C)CC(CC(=O)NO)C(=O)N[C@@H](Cc1c[nH]c2ccccc12)C(=O)NCCCCCCNC(=O)OCc1ccccc1 (stereo partly shown) [Compound 27A]
Found: YES

Lookup: Hello, is Ki of the following compound strictly smaller than 30 nM? CCCCCCCCCCCCNC(=O)[C@H](Cc1c[nH]c2ccccc12)NC(=O)C(CC(=O)NO)CC(C)C (single isomer, unassigned) [Compound 19A]
Found: NO

Lookup: Hello, is Ki of the following compound strictly smaller than 30 nM? CC(C)CC(CC(=O)NO)C(=O)N[C@@H](Cc1c[nH]c2ccccc12)C(=O)N[C@@H](C)c1ccccc1 (single isomer, unassigned) [Compound 21A]
Found: YES

---

Hi! I'm sharing some Ki results obtained with 92kD gelatinase (Homo sapiens, UniProt P14780).
Sequence (P14780 107-707 limits assumed): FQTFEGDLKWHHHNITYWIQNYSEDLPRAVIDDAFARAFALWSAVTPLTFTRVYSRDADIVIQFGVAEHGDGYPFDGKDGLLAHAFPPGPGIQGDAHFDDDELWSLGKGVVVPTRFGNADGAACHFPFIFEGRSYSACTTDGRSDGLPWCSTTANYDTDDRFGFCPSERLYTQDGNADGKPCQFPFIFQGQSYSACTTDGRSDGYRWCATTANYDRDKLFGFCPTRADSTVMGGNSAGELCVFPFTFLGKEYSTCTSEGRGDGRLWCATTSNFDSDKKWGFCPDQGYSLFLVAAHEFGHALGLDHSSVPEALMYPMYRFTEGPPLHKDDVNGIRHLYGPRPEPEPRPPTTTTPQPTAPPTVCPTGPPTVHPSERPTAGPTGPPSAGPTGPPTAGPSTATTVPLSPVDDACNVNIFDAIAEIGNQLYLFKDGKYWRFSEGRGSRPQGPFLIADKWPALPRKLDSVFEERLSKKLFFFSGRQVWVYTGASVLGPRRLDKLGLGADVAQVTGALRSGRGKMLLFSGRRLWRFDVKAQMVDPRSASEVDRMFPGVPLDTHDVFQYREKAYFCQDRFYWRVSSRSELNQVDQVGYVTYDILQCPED
Entry rule: numbers only, all in µM.

Examples with answers:
{"Molecule": "CCCCCCCCCCCCNC(=O)[C@H](Cc1c[nH]c2ccccc12)NC(=O)C(CC(=O)NO)CC(C)C (single isomer, unassigned) [Compound 19A]", "Ki [µM]": 0.00129}
{"Molecule": "C[C@H](NC(=O)[C@H](Cc1c[nH]c2ccccc12)NC(=O)[C@@H](CCC(=O)NO)NC(=O)OC(C)(C)C)c1ccccc1", "Ki [µM]": 21.1}

Let's switch to this molecule now.
Lookup: Give recorded Ki with 92kD gelatinase (Homo sapiens, UniProt P14780) for the following molecule: CC(C)C[C@H](CC(=O)O)C(=O)N[C@@H](Cc1c[nH]c2ccccc12)C(=O)NCCCN1CCOCC1
Found: 0.065
